Measured values drawn from patent US12077503B2 for this set.

System: velvetleaf (Abutilon theophrasti)
Experiment: Test G Post-Emergence Protocol
Format: in vivo
Details: Abutilon theophrasti, post-emergence, 312 h, 62.5 g ai/ha, evaluated after 13 days, 100=total damage to plant, 0=no damage to plant, read-out: Velvetleaf damage rating

| compound | pest or weed control at 62.5 g/ha (%) |
| --- | --- |
| COc1cc(F)cc(C2CN(C)C(=O)C2C(=O)Nc2cccc(F)c2F)c1 (centres unmarked) | 0 |
| Cc1cc(C2CN(C)C(=O)C2C(=O)Nc2cccc(F)c2F)cc(Cl)c1F (centres unmarked) | 0 |
| CN1C[C@H](c2cccc(C(F)(F)F)c2)[C@@H](C(=O)Nc2cc(C#N)ccn2)C1=O (racemic) | 0 |
| CN1C[C@@H](c2cccc(I)c2)[C@H](C(=O)Nc2cccc(F)c2F)C1=O (racemic) | 30 |
| CN1C[C@H](c2cc(F)cc(F)c2)[C@@H](C(=O)Nc2cnccc2C(F)(F)F)C1=O (racemic) | 0 |
| CSc1ccncc1NC(=O)[C@H]1C(=O)N(C)C[C@@H]1c1ccc(C(F)(F)F)cc1 (racemic) | 0 |
| CN1C[C@@H](c2cccc(Oc3ccc(F)cc3)c2)[C@H](C(=O)Nc2cccc(F)n2)C1=O (racemic) | 0 |
| CN1CC(c2ccc(C(F)(F)F)c(C(F)(F)F)c2)C(C(=O)Nc2cccc(F)c2F)C1=O (centres unmarked) | 30 |
| CN1C[C@@H](c2ccc(C(F)(F)F)cc2)[C@H](C(=O)Nc2ccc(F)nn2)C1=O (racemic) | 0 |
| CN1C[C@H](c2cc(C(C)(C)C)ncn2)[C@@H](C(=O)Nc2ccc(F)c(F)c2F)C1=O (racemic) | 0 |
| CN1C[C@H](c2ccc(C(F)(F)F)c(C(F)(F)F)c2)[C@@H](C(=O)Nc2ccccc2S(C)(=O)=O)C1=O (racemic) | 20 |
| COC(=O)c1cc([C@H]2CN(C)C(=O)[C@@H]2C(=O)Nc2ccccc2F)ccc1F (racemic) | 0 |
| CN1C[C@H](c2cc(C(F)(F)F)cc(C(F)(F)F)c2)[C@@H](C(=O)Nc2ccccc2S(C)(=O)=O)C1=O (racemic) | 0 |
| CN1C[C@H](c2cccc(C(F)(F)F)c2)[C@@H](C(=O)Nc2cnccc2F)C1=O (racemic) | 0 |

---

Form field: Corn plant response rating (crop injury, 0 = no effect, 100 = complete kill) at 125 g/ha (one value per entry).
Tested on: corn (Zea mays)
Experiment: Test A postemergence
Type: in vivo
Details: Zea mays, post-emergence, 240 h, 125 g ai/ha, postemergence; visual injury after approximately 10 d; 0 to 100 scale (0 no effect, 100 complete control)
readout-label: Corn plant response rating (crop injury, 0 = no effect, 100 = complete kill) at 125 g/ha

| compound | study-target | result |
| --- | --- | --- |
| CN1CC(c2cccc(OC/C=C/Cl)c2)C(C(=O)Nc2cccc(F)c2F)C1=O (stereo not drawn) | corn (Zea mays) | 0% |
| O=C1NC[C@H](c2cscn2)[C@H]1C(=O)Nc1ccccc1F | corn (Zea mays) | 0% |
| O=C1NCC[C@H](c2ccc(Cl)cc2)[C@H]1C(=O)Nc1cccc(F)c1F | corn (Zea mays) | 0% |
| CN1C[C@H](c2ccc(C(F)(F)F)cc2)[C@@H](C(=O)Nc2ccccc2C2CC2)C1=O | corn (Zea mays) | 0% |
| CCc1cc(CC)cc([C@H]2CN(C)C(=O)[C@@H]2C(=O)Nc2ccccc2C(F)(F)F)c1 | corn (Zea mays) | 40% |
| O=C1NC[C@H](c2cc(F)c(F)c(F)c2)[C@H]1C(=O)Nc1ccc(F)c(F)c1F | corn (Zea mays) | 50% |

---

System: giant foxtail (Setaria faberii)
Experiment: Test A preemergence
Assay type: in vivo
Conditions: Setaria faberi, pre-emergence, 240 h, 125 g ai/ha, preemergence; 0 to 100 scale where 0 is no effect and 100 is complete control; read-out: Foxtail, Giant plant response rating
Reported pest or weed control at 125 g/ha values for the following compounds.

| compound | study-target | pest or weed control at 125 g/ha |
| --- | --- | --- |
| CCc1ccccc1NC(=O)[C@H]1C(=O)N(C)C[C@@H]1c1ccc(C(F)(F)F)cc1 | giant foxtail (Setaria faberii) | 90% |
| CCOc1ccc([C@H]2CN(C)C(=O)[C@@H]2C(=O)Nc2cccc(F)c2F)cc1 | giant foxtail (Setaria faberii) | 90% |
| COc1cccc(C2CN(C)C(=O)C2C(=O)Nc2cccc(F)c2F)c1 (centres unmarked) | giant foxtail (Setaria faberii) | 90% |
| CN1CC[C@H](c2cccc(Cl)c2)[C@@H](C(=O)Nc2ccccc2S(C)(=O)=O)C1=O | giant foxtail (Setaria faberii) | 0% |
| O=C(Nc1cccc(Cl)c1F)[C@H]1C(=O)N(C2CC2)CC[C@@H]1c1cccc(C(F)(F)F)c1 | giant foxtail (Setaria faberii) | 80% |
| CN1C[C@H](c2cccc(COC(F)F)c2)[C@@H](C(=O)Nc2cccc(F)c2F)C1=O | giant foxtail (Setaria faberii) | 90% |
| COc1c(F)ccc([C@H]2CNC(=O)[C@@H]2C(=O)Nc2ccccc2S(C)(=O)=O)c1Cl | giant foxtail (Setaria faberii) | 70% |
| COc1c(F)ccc([C@H]2CN(C)C(=O)[C@@H]2C(=O)Nc2ccc(F)c(F)c2F)c1Cl | giant foxtail (Setaria faberii) | 90% |

---

Tested on: ivy-leaved morning glory (Ipomoea hederacea)
Assay: Test G Post-Emergence Protocol
Assay type: in vivo
Conditions: Ipomoea, post-emergence, 312 h, 15.625 g ai/ha, evaluated after 13 days (100=total damage to plant; 0=no damage to plant), read-out: Morningglory, Ivy-leaved damage rating
readout-label: pest or weed control at 15.625 g/ha (%)

| molecule | readout-label | value-units | quantitative-readout |
| --- | --- | --- | --- |
| CN1C[C@@H](c2ccc(C(F)(F)F)cc2)[C@H](C(=O)Nc2ccc(F)nc2)C1=O (racemic) [Compound 1555] | pest or weed control at 15.625 g/ha | % | 0 |
| CN1C[C@H](c2cccc(C(F)(F)F)c2)[C@@H](C(=O)Nc2cnccc2F)C1=O (racemic) [Compound 1745] | pest or weed control at 15.625 g/ha | % | 0 |
| CN1C[C@H](c2cccc(C(F)(F)F)c2)[C@@H](C(=O)Nc2ccc3cccnc3n2)C1=O (racemic) [Compound 1676] | pest or weed control at 15.625 g/ha | % | 0 |
| CSc1ccncc1NC(=O)[C@H]1C(=O)N(C)C[C@@H]1c1cccc(C(F)(F)F)c1 (racemic) [Compound 1750] | pest or weed control at 15.625 g/ha | % | 0 |
| CN1C[C@H](c2ccc(C(F)F)cc2)[C@@H](C(=O)Nc2ccccc2F)C1=O (racemic) [Compound 1454] | pest or weed control at 15.625 g/ha | % | 10 |
| CN1C[C@H](c2ccc(C(C)(C)C#N)cc2)[C@@H](C(=O)Nc2ccccc2F)C1=O (racemic) [Compound 1408] | pest or weed control at 15.625 g/ha | % | 0 |
| CN1C[C@@H](c2ccc(C(F)(F)F)cc2)[C@H](C(=O)Nc2ccccc2C#N)C1=O (racemic) [Compound 1599] | pest or weed control at 15.625 g/ha | % | 50 |
| CCOc1cc(C)cc(C2CN(C)C(=O)C2C(=O)Nc2cccc(F)c2F)c1 (stereo not shown) [Compound 1692] | pest or weed control at 15.625 g/ha | % | 40 |
| CN1C[C@@H](c2cncc(F)c2)[C@H](C(=O)Nc2cccc(F)c2F)C1=O (racemic) [Compound 1482] | pest or weed control at 15.625 g/ha | % | 0 |
| C#Cc1ccccc1NC(=O)[C@H]1C(=O)N(C)C[C@@H]1c1ccc(C(F)(F)F)cc1 (racemic) [Compound 1422] | pest or weed control at 15.625 g/ha | % | 0 |
| CN1C[C@@H](c2ccc(C(F)(F)F)cc2)[C@H](C(=O)Nc2cc(C(C)(C)C)[nH]n2)C1=O (racemic) [Compound 1545] | pest or weed control at 15.625 g/ha | % | 0 |
| COc1cccc(NC(=O)[C@H]2C(=O)N(C)C[C@@H]2c2ccc(C(F)(F)F)cc2)c1C (racemic) [Compound 1446] | pest or weed control at 15.625 g/ha | % | 0 |
| CN1C[C@@H](c2ccc(C(F)(F)F)cc2)[C@H](C(=O)Nc2ccnc(Cl)c2Cl)C1=O (racemic) [Compound 1503] | pest or weed control at 15.625 g/ha | % | 0 |
| CN1C[C@@H](c2ccc(C(F)(F)F)nc2)[C@H](C(=O)Nc2cccc(F)c2F)C1=O (racemic) [Compound 1458] | pest or weed control at 15.625 g/ha | % | 10 |
| CCCOc1cc(C2CN(C)C(=O)C2C(=O)Nc2cccc(F)c2F)cc(C(F)(F)F)c1 (stereo not shown) [Compound 1725] | pest or weed control at 15.625 g/ha | % | 30 |
| CN1C[C@H](c2ccc(C(C)(C)C)cc2)[C@@H](C(=O)Nc2ccccc2F)C1=O (racemic) [Compound 1409] | pest or weed control at 15.625 g/ha | % | 0 |
| Cc1cccc(NC(=O)[C@H]2C(=O)N(C)C[C@@H]2c2ccc(C(F)(F)F)cc2)c1C#N (racemic) [Compound 1413] | pest or weed control at 15.625 g/ha | % | 0 |
| C=CCc1ccc(Cl)cc1NC(=O)[C@H]1C(=O)N(C)C[C@@H]1c1ccc(C(F)(F)F)cc1 (racemic) [Compound 1441] | pest or weed control at 15.625 g/ha | % | 0 |
| CN1C[C@@H](c2ccc(C(F)(F)F)cc2)[C@H](C(=O)Nc2cccc3c2CCC3)C1=O (racemic) [Compound 1624] | pest or weed control at 15.625 g/ha | % | 10 |
| Cc1n[nH]cc1NC(=O)[C@@H]1C(=O)N(C)C[C@H]1c1ccc(C(F)(F)F)cc1 (racemic) [Compound 1634] | pest or weed control at 15.625 g/ha | % | 0 |
| C[C@@]1(C(=O)Nc2cccc(F)c2F)C(=O)NC[C@@H]1c1ccc(C(F)(F)F)cc1 (racemic) [Compound 1405] | pest or weed control at 15.625 g/ha | % | 0 |
| CN1C[C@@H](c2ccc(C(F)(F)F)nc2)[C@H](C(=O)Nc2ccccc2S(C)(=O)=O)C1=O (racemic) [Compound 1586] | pest or weed control at 15.625 g/ha | % | 0 |
| CSc1ccncc1NC(=O)[C@H]1C(=O)N(C)C[C@@H]1c1ccc(C(F)(F)F)cc1 (racemic) [Compound 1749] | pest or weed control at 15.625 g/ha | % | 0 |
| CN1C[C@H](c2ccc(C(F)(F)F)cc2)[C@@H](C(=O)Nc2cnccc2S(C)(=O)=O)C1=O (racemic) [Compound 1746] | pest or weed control at 15.625 g/ha | % | 0 |
| COc1cc(C)cc([C@@H]2CN(C)C(=O)[C@H]2C(=O)Nc2cccc(F)c2C)c1 (racemic) [Compound 1791] | pest or weed control at 15.625 g/ha | % | 20 |
